method.description: in vivo
experimental.parameters: both, monkey, inhaled or intranasal, 0.536 mg/kg
measured.endpoint: AUC(0-t)
Respond with a number, then the unit of measure.

Please fill in: AUC(0-t) reported for CCC(CC)COC(=O)[C@H](C)N[P@](=O)(OC[C@H]1O[C@@](C#N)(c2ccc3c(N)ncnn23)[C@H](O)[C@@H]1O)Oc1ccccc1 = 0.146 µM·h

* * *

Type: physicochemical
experimental.parameters: pH 1.8; 2-8° C.; 2 h
Consider the following molecules; for each one, report its % assay/degs, difference from T = 0.
Answers are plain numbers, in %.

CCC(CC)COC(=O)[C@H](C)N[P@](=O)(OC[C@H]1O[C@@](C#N)(c2ccc3c(N)ncnn23)[C@H](O)[C@@H]1O)Oc1ccccc1: 0.0

For every record below, what is its % assay/degs, difference from T = 0?
1. CCC(CC)COC(=O)[C@H](C)N[P@](=O)(OC[C@H]1O[C@@](C(N)=O)(c2ccc3c(N)ncnn23)[C@H](O)[C@@H]1O)Oc1ccccc1
2. N#C[C@@]1(c2ccc3c(N)ncnn23)O[C@H](CO)[C@@H](O)[C@H]1O
3. N#C[C@@]1(c2ccc3c(N)ncnn23)O[C@H](COP(=O)(O)Oc2ccccc2)[C@@H](O)[C@H]1O

OUTPUT:
0.00
0.00
0.02

Value source: patent US11701372B2
